molecular target: cynomolgus monkey PCSK9 (cynomolgus monkey, UniProt A0A7N9D9N8 150-747); assay: FRET, competitor EGFA peptide
pIC50: −log10 of the molar value.
READOUT: pIC50

BINDER	OBS_VALUE
1922G04(R25D) (designed binder, Anti-PCSK9 Adnectin, GSGS-His6 tail; the entry already carries the substitution) MGVSDVPRDLEVVAATPTSLLISWDPPSHAYGYYRITYGETGGNSPVQEFTVPIGKGTATISGLKPGVDYTITVYAVEYPWKGSGYYHRPISINYRTGSGSHHHHHH	7.32
1459D05 (designed binder, also called ATI000891; ATI-891) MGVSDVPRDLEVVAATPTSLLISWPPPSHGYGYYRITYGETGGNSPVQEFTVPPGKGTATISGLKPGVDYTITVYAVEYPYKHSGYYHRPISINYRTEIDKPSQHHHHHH	5.64
